- EXPERIMENT_SUMMARY: Acid dissociation constant was determined
- Type: ADME
- CONDITION_SUMMARY: read-out: pKa2
REPORTED_METRIC: pKa
Lab note: record the figure alone, no unit after it.

Query: Respond only with pKa recorded for `CCc1c(O)c(=O)ccn1C`
Response: 9.7

Query: Respond only with pKa recorded for `O=C(O)CCn1ccc(=O)c(O)c1`
Response: 8.91

Query: Respond only with pKa recorded for `Cc1c(O)c(=O)ccn1C`
Response: 9.86

Query: Respond only with pKa recorded for `Cn1ccc(=O)c(O)c1`
Response: 8.8

Query: Respond only with pKa recorded for `CCn1ccc(=O)c(O)c1C`
Response: 9.79

Query: Respond only with pKa recorded for `CCc1c(O)c(=O)ccn1CC`
Response: 10.1
